Tested on: NCI-H460
Experiment Notes: NCI tumour cell line growth inhibition, 48 h
Calls of active or inactive are those of the source. Rule as the data show it: active = GI50 up to about 1.1 µM and inactive = higher.
For each entry below, report its GI50 value.

Problem: I have this molecule here, Cc1ccc(C(=O)CCl)o1 , and I need its recorded GI50.
Solution: > 10 µM (inactive)

Problem: I have this molecule here, CCN1CCCCCCCCCC(=N/O)/C(=N\O)C1 , and I need its recorded GI50.
Solution: > 100 µM (inactive)

Problem: I have this molecule here, CC(C)(/C=N\O)NO , and I need its recorded GI50.
Solution: > 10 µM (inactive)

Problem: I have this molecule here, CC1CC(C)C(O)C(C2CC(CC(=O)NC3CCCCC3)CC(=O)O2)C1 (stereo unspecified) , and I need its recorded GI50.
Solution: > 100 µM (inactive)

Problem: I have this molecule here, CCOc1ccc2c(c1)[n+]([O-])c(S(=O)(=O)c1ccc(C)cc1)c(N)[n+]2[O-] , and I need its recorded GI50.
Solution: > 100 µM (inactive)

Problem: I have this molecule here, Oc1ccccc1-c1n[nH]c(-c2ccccc2O)n1 , and I need its recorded GI50.
Solution: 0.573 µM (active)

Problem: I have this molecule here, CC(=O)/C(=N\N=C(N)N)c1ccccc1 , and I need its recorded GI50.
Solution: > 100 µM (inactive)

Problem: I have this molecule here, CC1=NOC(=O)/C1=C/c1ccc2c(c1)OCO2 , and I need its recorded GI50.
Solution: 35.1 µM (inactive)

Problem: I have this molecule here, O=C1C(S(=O)(=O)c2ccccc2)=C(CS(=O)(=O)c2ccccc2)[C@@H](OCc2ccccc2)[C@@H]1OCc1ccccc1 , and I need its recorded GI50.
Solution: 21 µM (inactive)

Problem: I have this molecule here, CC1=NN(c2ccccc2)C(=O)C1=C1SCCS1 , and I need its recorded GI50.
Solution: 50.7 µM (inactive)

Problem: I have this molecule here, COc1ccc2c(c1)CCc1c-2n(CCN(C)C)c2ccc(OC)cc12 , and I need its recorded GI50.
Solution: 30.4 µM (inactive)

Problem: I have this molecule here, CCOP(=O)(OCC)C1(O)CC(n2cc(C)c(=O)[nH]c2=O)OC1CO (stereo unspecified) , and I need its recorded GI50.
Solution: > 100 µM (inactive)

Problem: I have this molecule here, CCOC(=O)N1Cc2ccoc2C1 , and I need its recorded GI50.
Solution: > 100 µM (inactive)

Problem: I have this molecule here, CC1(C)CC(=O)C2=C(C1)c1c(ccc3ccccc13)NC2c1cn(Cc2ccc(Cl)cc2)c2ccccc12 (stereo unspecified) , and I need its recorded GI50.
Solution: 23.9 µM (inactive)

Problem: I have this molecule here, Cc1ccc(/N=N/c2c(C)nn(-c3ccccc3)c2C)c(Br)c1 , and I need its recorded GI50.
Solution: 62.8 µM (inactive)

Problem: I have this molecule here, COc1ccc2oc3c4c2c1CCC4CCC3=O (stereo unspecified) , and I need its recorded GI50.
Solution: > 100 µM (inactive)

Problem: I have this molecule here, CN(C)c1ccc(/C=C/C(=O)C(C)(C)C)cc1Br , and I need its recorded GI50.
Solution: 35.8 µM (inactive)

Problem: I have this molecule here, CC1(C)C(OC(=O)c2ccccc2)C[C@]23CCC[C@](C)(C[C@@H](O)C12)C3 (stereo partly specified) , and I need its recorded GI50.
Solution: 16.2 µM (inactive)

Problem: I have this molecule here, Cc1cc(Br)c(N2C3=C(CC4=C2CCCC4=O)C(=O)CCC3)c(Br)c1 , and I need its recorded GI50.
Solution: 31.5 µM (inactive)

Problem: I have this molecule here, CC(C)(C)OC(=O)N1CCCC1C(=O)NC(c1ccccc1)c1ccccc1 (stereo unspecified) , and I need its recorded GI50.
Solution: > 100 µM (inactive)

Problem: I have this molecule here, C[C@]12CC[C@H]3[C@@H](CCC4=C[C@@H](OC5OCC(OC6OC(CO)C(O)C(O)C6O)C(O)C5O)CC[C@@]43C=O)[C@@]1(O)CCC2C1=CC(=O)OC1 (stereo partly specified) , and I need its recorded GI50.
Solution: 0.0982 µM (active)

Problem: I have this molecule here, COc1ccc(-c2ccc(CC(=O)O)cc2)cc1OC , and I need its recorded GI50.
Solution: > 100 µM (inactive)

Problem: I have this molecule here, Cc1ccc2[nH]c3c(C)c4cc[n+](C)cc4c(C)c3c2c1 , and I need its recorded GI50.
Solution: 3.66 µM (inactive)

Problem: I have this molecule here, N#CC1(C#N)C(C#N)(C#N)C12CCCCCC2 , and I need its recorded GI50.
Solution: > 47.1 µM (inactive)

Problem: I have this molecule here, O=C1NC(c2ccccc2)C1N(Cc1ccccc1)Cc1ccccc1 (stereo unspecified) , and I need its recorded GI50.
Solution: > 100 µM (inactive)

Problem: I have this molecule here, CC1=C(C(=O)OC(C)C)C(c2ccccc2[N+](=O)[O-])C(C(=O)OC(CO[N+](=O)[O-])CO[N+](=O)[O-])=C(C)N1 (stereo unspecified) , and I need its recorded GI50.
Solution: 3.1 µM (inactive)

Problem: I have this molecule here, CCCCCCCC/C=C/CCCCCCCC(=O)N(O)C1CC(n2cc(C)c(=O)[nH]c2=O)OC1CO (stereo unspecified) , and I need its recorded GI50.
Solution: 3.85 µM (inactive)

Problem: I have this molecule here, CC[C@H](C)[C@@H]([C@@H](CC(=O)N1CCC[C@H]1[C@H](OC)[C@@H](C)C(=O)NCCc1ccccc1)OC)N(C)C(=O)C(NC(=O)[C@H](C(C)C)N(C)C)C(C)C (stereo partly specified) , and I need its recorded GI50.
Solution: 0.000211 µM (active)

Problem: I have this molecule here, COC(=O)C(=O)C(C#N)c1nc2ccccc2s1 (stereo unspecified) , and I need its recorded GI50.
Solution: 63.4 µM (inactive)

Problem: I have this molecule here, CCOC(=O)C(CC(C)C)NC(=O)C(Cc1ccc(N(CCCl)CCCl)cc1)NC(C)=O (stereo unspecified) , and I need its recorded GI50.
Solution: 2.75 µM (inactive)

Problem: I have this molecule here, C#CCOC(=O)[C@@H](C)c1ccc2cc(OC)ccc2c1 , and I need its recorded GI50.
Solution: > 100 µM (inactive)

###

System: Malme-3M
Experiment Notes: NCI tumour cell line growth inhibition, 48 h
Active and inactive are the calls of the source. Cut-off read from the data, not from the text of the source: active = GI50 up to about 1.1 µM and inactive = higher. Residues, ends and D or L forms follow the SMILES beside them. *: point of attachment. OBn = c1ccc(CO*)cc1
Your reply should match one of these outcome classes. 1.0 for active, 0.0 for inactive

Problem: For CC(=O)NNc1nc(C)c(C(/C=C/c2ccc(NC(C)=O)cc2)=N/NS(=O)(=O)c2ccc(C)cc2)s1 , what call appears in the results of this test?
Solution: 0.0

Problem: For COc1ccccc1C(O)(c1ccccc1)C(O)(c1ccccc1)c1ccccc1OC (stereo not given) , what call appears in the results of this test?
Solution: 0.0

Problem: For COc1cc2c(cc1OC)C(=O)Cc1ccc3c(c1CNCC2)OCO3 , what call appears in the results of this test?
Solution: 0.0

Problem: For Cc1ccc2[nH]c3c(C)c4cc[n+](C)cc4c(C)c3c2c1 , what call appears in the results of this test?
Solution: 0.0

Problem: For CCN1CCCCCCCCCC(=N/O)/C(=N\O)C1 , what call appears in the results of this test?
Solution: 0.0

Problem: For Nc1nc(N)c(/N=N/c2ccc(C(=O)O)c(O)c2)c(N)n1 , what call appears in the results of this test?
Solution: 0.0

Problem: For C/C(=C\CNc1ncnc2[nH]c(Cl)nc12)CO , what call appears in the results of this test?
Solution: 0.0

Problem: For Cc1nc2ccccc2nc1-c1ccc(/N=[N+](\[O-])c2ccc(-c3nc4ccccc4nc3C)cc2)cc1 , what call appears in the results of this test?
Solution: 0.0

Problem: For O=C1C(Cl)=C(N2CCN(C3=C(Cl)C(=O)c4ccccc4C3=O)CC2)C(=O)c2ccccc21 , what call appears in the results of this test?
Solution: 0.0

Problem: For O=C1/C(=C/c2ccc(Cl)cc2)N=C(c2ccccc2)N1/N=C/c1ccccc1O , what call appears in the results of this test?
Solution: 0.0

Problem: For CC(C)[C@@H](C)CC[C@@H](C)C1CC=C2[C@@H]3CCC4C[C@@H](O[Si](C)(C)C(C)(C)C)CC[C@]4(C)C3CC[C@@]21C (stereo not given in full) , what call appears in the results of this test?
Solution: 0.0

Problem: For CC(=O)OCCOCCN1CCN(C2=C(Cl)C(=O)c3c(O)ccc(O)c3C2=O)CC1 , what call appears in the results of this test?
Solution: 1.0

Problem: For O=C(CC(=O)C1=CNc2ccccc2S1)C(=O)Nc1ccc(Cl)cc1 , what call appears in the results of this test?
Solution: 0.0

Problem: For O=C1/C(=N/c2ccc(Nc3ccccc3)cc2)Oc2ccccc21 , what call appears in the results of this test?
Solution: 0.0

Problem: For COc1ccc2c(NCCCCCCNc3c4ccccc4nc4cc(OC)ccc34)c3ccccc3nc2c1 , what call appears in the results of this test?
Solution: 1.0

Problem: For NC(Cc1ccc(O)c(O)c1)P(=O)(O)O (stereo not given) , what call appears in the results of this test?
Solution: 0.0

Problem: For CN(NC(=O)c1ccc(Cl)cc1)C1=NCCCCN1 , what call appears in the results of this test?
Solution: 0.0

Problem: For CCCCCCCCCCCCCCCCc1c(O)nc(NC#N)nc1C(=O)OC , what call appears in the results of this test?
Solution: 0.0

Problem: For CC1CN1c1c(C(=O)/C=C/c2ccc(Cl)cc2)c(-c2ccccc2)nn(C)c1=O (stereo not given) , what call appears in the results of this test?
Solution: 0.0

Problem: For COc1cc([C@@H]2c3cc4c(cc3[C@@H](OC(=O)c3cccc(N)c3)C3COC(=O)[C@@H]32)OCO4)cc(OC)c1O (stereo not given in full) , what call appears in the results of this test?
Solution: 0.0

Problem: For COc1ccc(-n2c(=O)n(C)c(=O)n2-c2c(C)c(C)c(C)c(C)c2C)cc1 , what call appears in the results of this test?
Solution: 0.0

Problem: For COc1cc(C2c3cc4c(cc3OC(Nc3ccccc3)C2C)OCO4)cc(OC)c1O (stereo not given) , what call appears in the results of this test?
Solution: 0.0

Problem: For Cc1cc(=O)oc2cc(OC(=O)Nc3ccccc3)ccc12 , what call appears in the results of this test?
Solution: 0.0

Problem: For Clc1ccc(C(Cc2ccccc2)c2c(Cl)nc(N3CCNCC3)nc2Cl)cc1 (stereo not given) , what call appears in the results of this test?
Solution: 0.0

Problem: For COc1ccc2nc(-c3ccc(OCc4ccccc4)cc3)ccc2c1 , what call appears in the results of this test?
Solution: 0.0

Problem: For CC1(C)C(OC(=O)c2ccccc2)C[C@]23CCC[C@](C)(C[C@@H](O)C12)C3 (stereo not given in full) , what call appears in the results of this test?
Solution: 0.0

Problem: For Oc1ccccc1-c1n[nH]c(-c2ccccc2O)n1 , what call appears in the results of this test?
Solution: 0.0

Problem: For NC(CCC(=O)OCc1ccccc1)C(=O)NC(CCC(=O)OCc1ccccc1)C(=O)O (stereo not given) (H-Glu(OBn)-Glu(OBn)-OH; configuration not given here) , what call appears in the results of this test?
Solution: 0.0

Problem: For O=C1C(S(=O)(=O)c2ccccc2)=C(CS(=O)(=O)c2ccccc2)[C@@H](OCc2ccccc2)[C@@H]1OCc1ccccc1 , what call appears in the results of this test?
Solution: 0.0

Problem: For CC[C@H](C)[C@@H]([C@@H](CC(=O)N1CCC[C@H]1[C@H](OC)[C@@H](C)C(=O)NCCc1ccccc1)OC)N(C)C(=O)C(NC(=O)[C@H](C(C)C)N(C)C)C(C)C (stereo not given in full) , what call appears in the results of this test?
Solution: 1.0

Measured values drawn from ChEMBL document CHEMBL1201862 for this set.
